Each recorded value in this set is attributed to the NIST ThermoML archive (doi:10.1021/je500205z).

# conditions: 313.15 K, Maximal bubble pressure
Each entry below carries its reported surface tension liquid-gas.
Write it as a number; the unit mN/m goes unstated.

Some solved entries appear below for comparison.
>>> value("C=Cn1cc[n+](CCCCCCCC)c1.[Br-] [1-ethenyl-3-octylimidazolium bromide]")
48.55
>>> value("C=Cn1cc[n+](CCCCCC)c1.[Br-] [3-hexyl-1-vinyl-1H-imidazol-3-ium bromide]")
51.15
>>> value("C=Cn1cc[n+](CCCCC)c1.[Br-] [1-ethenyl-3-pentylimidazolium bromide]")
61.08

Input: Which surface tension liquid-gas value belongs to C=Cn1cc[n+](C(C)C(=O)OCC)c1.[Cl-] (stereo not given) ?
Output: 55.89

Input: Moving on to C=C[n+]1ccn(CCCCCCCCCC)c1.[Br-] [1-decyl-3-ethenylimidazolium bromide]
Output: 41.8

###

# conditions: 293.15 K, Maximal bubble pressure
Numbers after ± are expanded uncertainties.
Each entry below carries its reported surface tension liquid-gas.
Include the unit right after the number.

Some solved entries appear below for comparison.
>>> value("CCO")
"22.27 ± 0.41 mN/m"
>>> value("CC(C)=O")
"23.7 ± 0.43 mN/m"

# input for lookup
Input: Which surface tension liquid-gas value belongs to C=C[n+]1ccn(CCCCCCCCCC)c1.[Br-] [1-decyl-3-ethenylimidazolium bromide] ?
Output: 53.48 ± 0.63 mN/m

###

# conditions: 318.15 K, Maximal bubble pressure
test_readout: surface tension liquid-gas (mN/m)
Write it as a number; the unit mN/m goes unstated.

Some solved entries appear below for comparison.
>>> value("C=Cn1cc[n+](C(C)C(=O)OCC)c1.[Cl-] (stereo not given)")
53.02
>>> value("C=Cn1cc[n+](CCCCC)c1.[Br-] [1-ethenyl-3-pentylimidazolium bromide]")
58.28
>>> value("C=Cn1cc[n+](CCCCCC)c1.[Br-] [3-hexyl-1-vinyl-1H-imidazol-3-ium bromide]")
48.44
>>> value("C=Cn1cc[n+](CCCCCCCC)c1.[Br-] [1-ethenyl-3-octylimidazolium bromide]")
45.79

Input: Which surface tension liquid-gas value belongs to C=C[n+]1ccn(CCCCCCCCCC)c1.[Br-] [1-decyl-3-ethenylimidazolium bromide] ?
Output: 39.03

###

# conditions: 303.15 K, Maximal bubble pressure
Each entry below carries its reported surface tension liquid-gas.
Write it as a number; the unit mN/m goes unstated.

>>> value("C=C[n+]1ccn(CCCCCCCCCC)c1.[Br-] [1-decyl-3-ethenylimidazolium bromide]")
47.76
>>> value("C=Cn1cc[n+](CCCCCCCC)c1.[Br-] [1-ethenyl-3-octylimidazolium bromide]")
54.04
>>> value("C=Cn1cc[n+](C(C)C(=O)OCC)c1.[Cl-] (stereo not given)")
61.18
>>> value("C=Cn1cc[n+](CCCCCC)c1.[Br-] [3-hexyl-1-vinyl-1H-imidazol-3-ium bromide]")
56.81

# input for lookup
Input: Which surface tension liquid-gas value belongs to C=Cn1cc[n+](CCCCC)c1.[Br-] [1-ethenyl-3-pentylimidazolium bromide] ?
Output: 67.08

###

# conditions: 333.15 K, Maximal bubble pressure
test_readout: surface tension liquid-gas (mN/m)
Write it as a number; the unit mN/m goes unstated.

>>> value("C=Cn1cc[n+](CCCCCCCC)c1.[Br-] [1-ethenyl-3-octylimidazolium bromide]")
38.24

Input: Which surface tension liquid-gas value belongs to C=C[n+]1ccn(CCCCCCCCCC)c1.[Br-] [1-decyl-3-ethenylimidazolium bromide] ?
Output: 32.04

Input: Moving on to C=Cn1cc[n+](CCCCCC)c1.[Br-] [3-hexyl-1-vinyl-1H-imidazol-3-ium bromide]
Output: 40.4

Input: Moving on to C=Cn1cc[n+](CCCCC)c1.[Br-] [1-ethenyl-3-pentylimidazolium bromide]
Output: 50.59

Input: Moving on to C=Cn1cc[n+](C(C)C(=O)OCC)c1.[Cl-] (stereo not given)
Output: 45.54

###

Each entry below carries its reported surface tension liquid-gas.
# conditions: 308.15 K, Maximal bubble pressure
± gives the expanded uncertainty stated by the source.

Some solved entries appear below for comparison.
>>> value("C=C[n+]1ccn(CCCCCCCCCC)c1.[Br-] [1-decyl-3-ethenylimidazolium bromide]")
"44.56 ± 0.53 mN/m"
>>> value("C=Cn1cc[n+](C(C)C(=O)OCC)c1.[Cl-] (stereo not given)")
"58.46 ± 0.68 mN/m"
>>> value("C=Cn1cc[n+](CCCCCC)c1.[Br-] [3-hexyl-1-vinyl-1H-imidazol-3-ium bromide]")
"53.95 ± 0.63 mN/m"
>>> value("C=Cn1cc[n+](CCCCC)c1.[Br-] [1-ethenyl-3-pentylimidazolium bromide]")
"64.11 ± 0.74 mN/m"

Input: Which surface tension liquid-gas value belongs to C=Cn1cc[n+](CCCCCCCC)c1.[Br-] [1-ethenyl-3-octylimidazolium bromide] ?
Output: 51.22 ± 0.6 mN/m

###

# conditions: 323.15 K, Maximal bubble pressure
test_readout: surface tension liquid-gas (mN/m)
Write it as a number; the unit mN/m goes unstated.

>>> value("C=Cn1cc[n+](CCCCC)c1.[Br-] [1-ethenyl-3-pentylimidazolium bromide]")
55.53
>>> value("C=C[n+]1ccn(CCCCCCCCCC)c1.[Br-] [1-decyl-3-ethenylimidazolium bromide]")
36.2
>>> value("C=Cn1cc[n+](C(C)C(=O)OCC)c1.[Cl-] (stereo not given)")
50.55
>>> value("C=Cn1cc[n+](CCCCCCCC)c1.[Br-] [1-ethenyl-3-octylimidazolium bromide]")
43.18

# input for lookup
Input: Which surface tension liquid-gas value belongs to C=Cn1cc[n+](CCCCCC)c1.[Br-] [3-hexyl-1-vinyl-1H-imidazol-3-ium bromide] ?
Output: 45.67

###

# conditions: 328.15 K, Maximal bubble pressure
Each entry below carries its reported surface tension liquid-gas.
Write it as a number; the unit mN/m goes unstated.

Some solved entries appear below for comparison.
>>> value("C=C[n+]1ccn(CCCCCCCCCC)c1.[Br-] [1-decyl-3-ethenylimidazolium bromide]")
33.77
>>> value("C=Cn1cc[n+](CCCCCCCC)c1.[Br-] [1-ethenyl-3-octylimidazolium bromide]")
40.6
>>> value("C=Cn1cc[n+](CCCCCC)c1.[Br-] [3-hexyl-1-vinyl-1H-imidazol-3-ium bromide]")
43.01
>>> value("C=Cn1cc[n+](C(C)C(=O)OCC)c1.[Cl-] (stereo not given)")
48.14

# input for lookup
Input: Which surface tension liquid-gas value belongs to C=Cn1cc[n+](CCCCC)c1.[Br-] [1-ethenyl-3-pentylimidazolium bromide] ?
Output: 53.24

###

Each entry below carries its reported surface tension liquid-gas.
# conditions: 298.15 K, Maximal bubble pressure
Write it as a number; the unit mN/m goes unstated.

>>> value("C=Cn1cc[n+](C(C)C(=O)OCC)c1.[Cl-] (centres undefined)")
63.9
>>> value("C=C[n+]1ccn(CCCCCCCCCC)c1.[Br-] [1-decyl-3-ethenylimidazolium bromide]")
50.63

Input: Which surface tension liquid-gas value belongs to C=Cn1cc[n+](CCCCCCCC)c1.[Br-] [1-ethenyl-3-octylimidazolium bromide] ?
Output: 56.82

Input: Moving on to C=Cn1cc[n+](CCCCCC)c1.[Br-] [3-hexyl-1-vinyl-1H-imidazol-3-ium bromide]
Output: 59.52

###

# conditions: 293.15 K, Maximal bubble pressure
test_readout: surface tension liquid-gas (mN/m)
Write it as a number; the unit mN/m goes unstated.

Some solved entries appear below for comparison.
>>> value("c1ccccc1")
28.18
>>> value("ClC(Cl)Cl")
27.14
>>> value("C=Cn1cc[n+](CCCCCCCC)c1.[Br-] [1-ethenyl-3-octylimidazolium bromide]")
59.74
>>> value("C=Cn1cc[n+](C(C)C(=O)OCC)c1.[Cl-] (stereo not given)")
66.75

# input for lookup
Input: Which surface tension liquid-gas value belongs to C=Cn1cc[n+](CCCCCC)c1.[Br-] [3-hexyl-1-vinyl-1H-imidazol-3-ium bromide] ?
Output: 62.29
